Molecular target: CGRP receptor (calcitonin receptor-like receptor in complex with receptor activity-modifying protein 1) (human (endogenous in SK-N-MC), UniProt Q16602 23-461; O60894 27-148)
Sequence (Q16602 23-461, chain 1 of 2): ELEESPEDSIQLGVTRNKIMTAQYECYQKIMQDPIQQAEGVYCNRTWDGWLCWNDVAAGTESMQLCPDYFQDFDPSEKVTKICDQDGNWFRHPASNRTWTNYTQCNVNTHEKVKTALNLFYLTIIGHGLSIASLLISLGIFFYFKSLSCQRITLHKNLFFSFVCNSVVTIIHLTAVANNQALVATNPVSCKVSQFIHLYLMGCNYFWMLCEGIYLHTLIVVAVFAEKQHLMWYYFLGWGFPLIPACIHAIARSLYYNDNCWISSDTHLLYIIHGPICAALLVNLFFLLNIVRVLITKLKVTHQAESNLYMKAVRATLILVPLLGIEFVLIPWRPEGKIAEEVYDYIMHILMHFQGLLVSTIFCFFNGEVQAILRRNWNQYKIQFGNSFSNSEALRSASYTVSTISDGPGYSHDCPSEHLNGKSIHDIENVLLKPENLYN
Sequence (O60894 27-148, chain 2 of 2): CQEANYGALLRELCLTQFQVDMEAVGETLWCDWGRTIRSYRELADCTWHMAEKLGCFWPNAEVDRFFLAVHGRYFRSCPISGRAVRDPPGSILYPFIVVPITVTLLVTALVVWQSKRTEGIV
Assay: cell-based or functional assay
Bridge positions count the residues as written; N and C are the ends. Ends that are not written are not given here.
observable: pEC50, β-arrestin 2 translocation in CHO-K1 cells expressing the human CGRP receptor
Could you keep your reply to the number by itself?

Worked set:
[[record]]
binder = "ACDAATCVTHRLAGLLSRSGGVVKNNFVPTNVGSKAF-NH2 (disulfide 2-7) [[Ala^4]-CGRP]"
value_reported = 8.42

[[record]]
binder = "ACDTAACVTHRLAGLLSRSGGVVKNNFVPTNVGSKAF-NH2 (disulfide 2-7) [[Ala^6]-CGRP]"
value_reported = 7.74

[[record]]
binder = "CCDTATCVTHRLAGLLSRSGGVVKNNFVPTNVGSKAF-NH2 (disulfide 2-7; also: Cys1 Acm protected, removal not given here) [[Cys^1]-CGRP]"
value_reported = 8.58


Asked: Please indicate pEC50, β-arrestin 2 translocation in CHO-K1 cells expressing the human CGRP receptor recorded for ACDTASCVTHRLAGLLSRSGGVVKNNFVPTNVGSKAF-NH2 (disulfide 2-7) [[Ser^6]-CGRP]
Given back: 8.07
